- Measured Target: galectin-3 (Homo sapiens)
- Experiment Notes: GPN-induced galectin-3 accumulation (puncta) in JIMT-1 breast cancer cells
- Assay type: cell-based
- Set-up: In the intracellular assay, in contrast, only endogenous galectin was present; endogenous in cells; host or cells: JIMT-1 breast cancer cells
- Test Context: JIMT-1 cells, 15 minutes pre-incubation; read-out: IC50, inhibition of GPN-induced galectin-3 accumulation
Quantity Name: IC50

molecule="CCCCNC(=O)c1cn(C2C(O)C(CO)OC(SC3OC(CO)C(O)C(n4cc(C(=O)NCCCC)nn4)C3O)C2O)nn1 (stereo not shown)" measured_target="galectin-3 (Homo sapiens)" quantity_name=IC50 result="~10 µM"

* * *

- Experiment Notes: Caco-2 permeability assay
- Test Context: human, Caco-2, pH 7.4
Reported Papp B→A values for a set of compounds
Quantity Name: Papp B→A (×10⁻⁶ cm/s)

compound=OC[C@H]1O[C@H](Sc2ccc(Cl)c(Cl)c2)[C@H](O)[C@@H](n2cc(-c3cc(F)c(F)c(F)c3)nn2)[C@H]1O value_modifier== measured_number=16.2
compound="CCCCNC(=O)c1cn(C2C(O)C(CO)OC(SC3OC(CO)C(O)C(n4cc(C(=O)NCCCC)nn4)C3O)C2O)nn1 (stereo not drawn)" value_modifier=< measured_number=0.07
compound=OC[C@H]1O[C@@H](S[C@@H]2O[C@H](CO)[C@H](O)[C@H](n3cc(-c4cccc(F)c4)nn3)[C@H]2O)[C@H](O)[C@@H](n2cc(-c3cccc(F)c3)nn2)[C@H]1O value_modifier== measured_number=0.05

* * *

Reported Papp A→B values for a set of compounds
- Experiment Notes: Caco-2 permeability assay
- Test Context: human, Caco-2, pH 7.4
Quantity Name: Papp A→B (×10⁻⁶ cm/s)

compound="CCCCNC(=O)c1cn(C2C(O)C(CO)OC(SC3OC(CO)C(O)C(n4cc(C(=O)NCCCC)nn4)C3O)C2O)nn1 (stereo not drawn)" quantity_name="Papp A→B" value_modifier=< measured_number=0.3
compound=OC[C@H]1O[C@@H](S[C@@H]2O[C@H](CO)[C@H](O)[C@H](n3cc(-c4cccc(F)c4)nn3)[C@H]2O)[C@H](O)[C@@H](n2cc(-c3cccc(F)c3)nn2)[C@H]1O quantity_name="Papp A→B" value_modifier== measured_number=0.07
compound=OC[C@H]1O[C@H](Sc2ccc(Cl)c(Cl)c2)[C@H](O)[C@@H](n2cc(-c3cc(F)c(F)c(F)c3)nn2)[C@H]1O quantity_name="Papp A→B" value_modifier== measured_number=14.7

* * *

- Measured Target: galectin-3 (Homo sapiens, UniProt P17931)
- Sequence (P17931 whole entry): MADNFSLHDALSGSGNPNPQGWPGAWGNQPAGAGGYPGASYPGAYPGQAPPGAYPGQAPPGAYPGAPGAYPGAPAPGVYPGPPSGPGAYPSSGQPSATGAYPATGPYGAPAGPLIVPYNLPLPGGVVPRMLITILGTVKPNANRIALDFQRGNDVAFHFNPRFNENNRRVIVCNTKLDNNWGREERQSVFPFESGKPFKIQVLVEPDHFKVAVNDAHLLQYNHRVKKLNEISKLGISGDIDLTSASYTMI
- Experiment Notes: Fluorescence anisotropy (FA) competitive assay, affinity for galectin-3
- Assay type: binding
- Parameters: made in house; host or cells: E. coli BL21 Star (DE3)
- Test Context: as in Fig. 1b, restated in legend of Fig. S1; read-out: Kd value for galectin-3
Quantity Name: Kd (nM)

molecule="CCCCNC(=O)c1cn(C2C(O)C(CO)OC(SC3OC(CO)C(O)C(n4cc(C(=O)NCCCC)nn4)C3O)C2O)nn1 (stereo not shown)" quantity_name=Kd result_unit=nM measured_number=35.8

* * *

- Measured Target: galectin-3 (Homo sapiens)
- Experiment Notes: Fluorescence anisotropy (FA) competitive assay, affinity for galectin-3
- Format: binding
- Parameters: made in house; host or cells: E. coli BL21 Star (DE3)
- Test Context: pH 5, acetate buffer with NaCl; read-out: Kd value for galectin-3 at pH 5
pKd: −log10 of the molar value.
Quantity Name: pKd

molecule="CCCCNC(=O)c1cn(C2C(O)C(CO)OC(SC3OC(CO)C(O)C(n4cc(C(=O)NCCCC)nn4)C3O)C2O)nn1 (stereo not shown)" measured_number=6.11
